# target: KCa2.2 (Homo sapiens, UniProt Q9H2S1)
# Sequence (Q9H2S1 whole entry): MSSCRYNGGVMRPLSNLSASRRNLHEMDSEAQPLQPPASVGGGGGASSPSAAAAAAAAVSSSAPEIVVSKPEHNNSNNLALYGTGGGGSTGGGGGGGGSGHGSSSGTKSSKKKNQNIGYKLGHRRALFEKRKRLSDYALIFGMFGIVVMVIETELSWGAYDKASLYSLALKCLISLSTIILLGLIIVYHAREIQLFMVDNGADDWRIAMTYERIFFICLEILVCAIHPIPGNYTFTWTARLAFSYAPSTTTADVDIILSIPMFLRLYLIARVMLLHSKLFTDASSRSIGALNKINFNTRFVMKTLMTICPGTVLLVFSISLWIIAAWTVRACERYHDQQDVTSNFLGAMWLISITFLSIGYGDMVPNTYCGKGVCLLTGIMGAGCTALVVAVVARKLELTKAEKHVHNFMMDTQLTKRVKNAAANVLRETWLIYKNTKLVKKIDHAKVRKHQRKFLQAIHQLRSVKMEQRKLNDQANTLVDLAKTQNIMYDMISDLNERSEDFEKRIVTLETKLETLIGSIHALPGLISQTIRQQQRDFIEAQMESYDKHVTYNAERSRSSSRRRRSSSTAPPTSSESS
# test.summary: whole-cell patch clamp (Hill fit of concentration-response)
measured.quantity: pKd
Reminder that pKd is minus the log10 of a molar concentration.

Prompt: So what does the record say about pKd for TFINHKCKSSSECLPACKAAIGRASGKCINSTCKCYY [Cm39 (α-KTx 4.8)] ?
Completion: 6.30
